The origin of these recorded values is ChEMBL document CHEMBL1136896.

Tested on: Bel-7402
assayNotes: Antitumor activity against human Bel7402 cells at 1 uM/L after 72 hrs by MTT assay
Assay type: functional
settings: Bel-7402, 72 h
measurementLabel: inhibition at 1 µM
Include the unit right after the number.

Sample answers from the record:
CCOCCOC(=O)/C(C#N)=C(/CC)NNc1cccc(Cl)c1Cl | 11.6%
CCOCCOC(=O)/C(C#N)=C(\NNc1cccc(Cl)c1Cl)C(C)C | 14.7%
CCOCCOC(=O)c1c(SC)nn(-c2ccc(Cl)cc2Cl)c1N | 0%

Ask | Specify inhibition at 1 µM for `CCOCCOC(=O)/C(C#N)=C(/CC)NNc1cc(Cl)c(Cl)cc1Cl` and stop.
Reply | 0%

Ask | Consider the compound `CCOCCOC(=O)c1c(SC)nn(-c2ccc([N+](=O)[O-])cc2)c1N` and give its recorded inhibition at 1 µM.
Reply | 5.5%

Ask | Return inhibition at 1 µM (reported value) for this compound: `CCOCCOC(=O)c1c(C(C)C)nn(-c2ccc(Cl)cc2Cl)c1N`
Reply | 5.5%

Ask | Query inhibition at 1 µM for `CCOCCOC(=O)/C(C#N)=C(\NNc1cc(Cl)c(Cl)cc1Cl)C(C)C`
Reply | 0%
